- System: MRC-5SV2 (human lung fibroblast cell line)
- methodSummary: Toxicity against MRC-5SV2
- Assay type: cell-based
- details: MRC5 cells

compound | uom | MRC5 TC50
Cc1ccc2nc(-c3ccccc3)c(CNc3ccc(F)cc3)n2c1 [OSA_001027] | µM | 64
Fc1cccc(-c2c(-c3ccccn3)nc3n2CCC3)c1 [OSA_000872] | µM | 7.2
COc1ccc2nc(-c3ccccn3)c(N(C)c3ccc(F)cc3)n2c1 [OSA_000980] | µM | 2
COc1ccn2c(Nc3ccccc3F)c(-c3cnn(C)c3)nc2c1 [OSA_000855] | µM | 64
CCCCN(Cc1c(-c2ccccc2)nc2ccc(C)cn12)c1cccc(C(F)(F)F)c1 [OSA_001029] | µM | 1.19
